Data credit: patent US7074789B2

Biological target: Kdr (Homo sapiens, UniProt P35968)
Construct: Kinases are expressed as either kinase domains or full length constructs; made in house
Sequence (P35968 20-1356, species assumed): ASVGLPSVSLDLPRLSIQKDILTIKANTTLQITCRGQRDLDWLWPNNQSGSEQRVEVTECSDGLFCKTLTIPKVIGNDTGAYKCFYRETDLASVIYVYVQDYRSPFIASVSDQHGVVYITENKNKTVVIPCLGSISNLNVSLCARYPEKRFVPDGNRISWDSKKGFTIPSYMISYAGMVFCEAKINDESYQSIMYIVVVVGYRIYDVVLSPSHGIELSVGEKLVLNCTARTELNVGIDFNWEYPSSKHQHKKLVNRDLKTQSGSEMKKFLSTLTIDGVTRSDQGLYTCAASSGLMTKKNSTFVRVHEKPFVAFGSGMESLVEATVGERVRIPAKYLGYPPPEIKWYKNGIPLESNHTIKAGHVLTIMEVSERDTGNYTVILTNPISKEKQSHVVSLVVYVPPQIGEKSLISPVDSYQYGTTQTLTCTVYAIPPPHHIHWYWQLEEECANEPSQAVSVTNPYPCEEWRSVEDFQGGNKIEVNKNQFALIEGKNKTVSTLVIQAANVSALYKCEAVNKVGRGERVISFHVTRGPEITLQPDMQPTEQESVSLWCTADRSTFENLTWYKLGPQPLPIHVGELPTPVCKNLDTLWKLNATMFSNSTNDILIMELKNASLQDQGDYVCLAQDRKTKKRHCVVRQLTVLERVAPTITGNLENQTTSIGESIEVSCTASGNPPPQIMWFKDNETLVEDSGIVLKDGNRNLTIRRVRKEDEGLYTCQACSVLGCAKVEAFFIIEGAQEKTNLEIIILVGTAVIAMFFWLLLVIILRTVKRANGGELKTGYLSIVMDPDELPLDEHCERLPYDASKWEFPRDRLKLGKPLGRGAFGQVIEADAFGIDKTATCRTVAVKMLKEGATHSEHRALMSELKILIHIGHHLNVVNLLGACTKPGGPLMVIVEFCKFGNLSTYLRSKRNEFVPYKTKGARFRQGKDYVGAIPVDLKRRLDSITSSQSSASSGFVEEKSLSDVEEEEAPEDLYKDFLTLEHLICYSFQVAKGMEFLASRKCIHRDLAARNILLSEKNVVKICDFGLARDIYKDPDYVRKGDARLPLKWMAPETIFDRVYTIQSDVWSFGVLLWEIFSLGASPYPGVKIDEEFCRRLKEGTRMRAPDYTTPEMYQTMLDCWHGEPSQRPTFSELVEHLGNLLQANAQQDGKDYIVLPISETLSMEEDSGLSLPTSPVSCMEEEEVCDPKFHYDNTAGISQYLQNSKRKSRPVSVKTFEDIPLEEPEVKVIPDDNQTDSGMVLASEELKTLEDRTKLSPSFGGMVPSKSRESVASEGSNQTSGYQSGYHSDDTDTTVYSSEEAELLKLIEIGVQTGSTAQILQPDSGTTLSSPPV
Assay: Kinase inhibition assay (33P transfer), Kdr
Assay type: biochemical
Details: read-out: KDR-1
pIC50: −log10 of the molar value.
# pIC50 per record follows
endpoint: pIC50

[[record]]
structure_notation = "Nc1nc2ccccc2n1-c1ncnc(Nc2cccc(CC(=O)NCc3ccccn3)c2)n1"
experimental_value = "> 6.05"

[[record]]
structure_notation = "COc1cc(Nc2ncnc(Nc3ccc(C(C)=O)cc3)n2)cc(OC)c1OC"
experimental_value = "> 5.99"

[[record]]
structure_notation = "CN(c1cccc(Cl)c1)c1ncnc(NC2CCN(Cc3ccccc3)CC2)n1"
experimental_value = "< 4.96"

[[record]]
structure_notation = "COc1cc(Nc2ncnc(-n3c(=O)[nH]c4ccccc43)n2)cc(OC)c1OCCN1CCOCC1"
experimental_value = "> 6.09"

[[record]]
structure_notation = "COc1ccc(Nc2ncnc(NCCNC(C)=O)n2)cc1OC"
experimental_value = "< 4.87"

